Provide the reported pEC50 of each item.
Molecular target: T1, Peptide-25 (cysteine pairing not given here; also: biotinylated (site not given here))
T1 peptide: VDFCKIYSWPVCHQ
Assay: ELISA, Fab on captured biotin-peptide
Where no end group is shown, it is not given here.
API: returns pEC50 as number; meaning -log10 of concentration in mol/L.

Look up pEC50: TBD-6 (LC I93A) (Fab, V domains shown, Fab; also called LC I93A mutant) VH: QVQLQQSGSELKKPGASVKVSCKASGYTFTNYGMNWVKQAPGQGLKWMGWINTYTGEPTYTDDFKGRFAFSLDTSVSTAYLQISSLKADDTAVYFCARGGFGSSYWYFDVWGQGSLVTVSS VL: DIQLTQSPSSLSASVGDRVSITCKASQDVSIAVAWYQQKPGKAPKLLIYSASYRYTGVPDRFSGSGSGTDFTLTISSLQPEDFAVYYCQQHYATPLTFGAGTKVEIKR
7.42

Look up pEC50: TBD-21 (HC F108A) (Fab, V domains shown, Fab; also called HC F108A mutant) VH: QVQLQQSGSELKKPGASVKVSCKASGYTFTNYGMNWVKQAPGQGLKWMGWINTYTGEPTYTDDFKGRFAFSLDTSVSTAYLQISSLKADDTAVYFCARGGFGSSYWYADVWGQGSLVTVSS VL: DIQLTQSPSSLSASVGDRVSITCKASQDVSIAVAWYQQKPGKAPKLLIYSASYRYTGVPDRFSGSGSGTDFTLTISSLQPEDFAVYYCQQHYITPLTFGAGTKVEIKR
7.32

Look up pEC50: TBD-17 (HC S104A) (Fab, V domains shown, Fab; also called HC S104A mutant) VH: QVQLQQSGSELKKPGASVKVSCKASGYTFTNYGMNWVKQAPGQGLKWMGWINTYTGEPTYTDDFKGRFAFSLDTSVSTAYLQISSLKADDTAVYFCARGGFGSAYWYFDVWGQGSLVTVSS VL: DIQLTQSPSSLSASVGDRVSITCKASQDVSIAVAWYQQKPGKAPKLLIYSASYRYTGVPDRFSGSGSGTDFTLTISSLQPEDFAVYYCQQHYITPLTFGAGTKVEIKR
7.41
